Sourced from patent US20080255206A1

# target-or-test-system: RARα (Homo sapiens, UniProt P10276)
# Sequence (P10276 183-417 limits assumed): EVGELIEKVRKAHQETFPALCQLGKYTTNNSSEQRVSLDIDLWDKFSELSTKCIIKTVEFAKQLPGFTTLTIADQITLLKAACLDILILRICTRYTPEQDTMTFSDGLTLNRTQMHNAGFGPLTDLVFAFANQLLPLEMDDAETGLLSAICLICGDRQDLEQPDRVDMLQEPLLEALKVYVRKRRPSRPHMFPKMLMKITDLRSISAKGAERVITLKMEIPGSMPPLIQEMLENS
# assay-overview: Retinoid activation assay, RARα (COS-1 cells, SeAP reporter)
# conditions-used: read-out: Activation EC50 RAR α
experimental-endpoint: EC50 (µM)

// worked examples, EC50 included
{"smiles-string": "CC1=C(/C=C/c2sccc2/C=C/C(C)=C/C(=O)O)C(C)(C)CCC1", "EC50, µM": 0.17}
{"smiles-string": "CC(/C=C/c1sccc1-c1ccc2c(c1)C(C)(C)CCC2(C)C)=C\\C(=O)O", "EC50, µM": 2.3}

a = CCC1(CC)CCC(C)(C)c2cc(\C(C)=C/C=C/C(C)=C/C(=O)O)ccc21
b = CC1=C(/C=C/C2=C(/C=C/C(C)=C/C(=O)O)CCC2)C(C)(C)CCC1
c = CC(/C=C/C1=C(c2ccc3c(c2)C(C)(C)CCC3(C)C)CCC1)=C\C(=O)O
Task: Form: Sort by [EC50] Order [ ascending ] Note for the reader: the ranking is given by listing the labels in the order requested.
Result: a, b, c

----------
# target-or-test-system: RARγ (Homo sapiens)
# assay-overview: Retinoid activation assay, RARγ (COS-1 cells, SeAP reporter)
# conditions-used: read-out: Activation EC50 RAR γ
# Sequence (P13631 185-454 limits assumed): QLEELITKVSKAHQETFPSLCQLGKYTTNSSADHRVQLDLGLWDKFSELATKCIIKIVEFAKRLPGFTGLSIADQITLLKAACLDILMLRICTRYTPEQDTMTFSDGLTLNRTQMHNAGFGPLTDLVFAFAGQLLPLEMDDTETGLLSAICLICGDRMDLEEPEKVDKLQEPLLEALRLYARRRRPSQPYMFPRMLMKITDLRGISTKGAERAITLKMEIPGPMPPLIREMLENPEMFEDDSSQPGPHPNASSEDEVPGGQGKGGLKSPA
experimental-endpoint: EC50 (nM)

// worked examples, EC50 included
{"compound": "CC1=C(/C=C/C2=C(/C=C/C(C)=C/C(=O)O)CCC2)C(C)(C)CCC1", "display-unit": "nM", "EC50": 150}
{"compound": "CC(/C=C/c1sccc1-c1ccc2c(c1)C(C)(C)CCC2(C)C)=C\\C(=O)O", "display-unit": "nM", "EC50": 890}
{"compound": "CC(/C=C/C1=C(c2ccc3c(c2)C(C)(C)CCC3(C)C)CCC1)=C\\C(=O)O", "display-unit": "nM", "EC50": 200}

P = CC(/C=C/[C@@H]1C[C@@H]1c1ccc2c(c1)C(C)(C)CCC2(C)C)=C\C(=O)O (racemic)
Q = CCC1(CC)CCC(C)(C)c2cc(\C(C)=C/C=C/C(C)=C/C(=O)O)ccc21
R = CC1=C(/C=C/c2sccc2/C=C/C(C)=C/C(=O)O)C(C)(C)CCC1
Task: Form: Sort by [EC50] Order [ ascending ] Note for the reader: the ranking is given by listing the labels in the order requested.
Result: Q, R, P

----------
# target-or-test-system: RARγ (Homo sapiens)
# Sequence (P13631 185-419 limits assumed): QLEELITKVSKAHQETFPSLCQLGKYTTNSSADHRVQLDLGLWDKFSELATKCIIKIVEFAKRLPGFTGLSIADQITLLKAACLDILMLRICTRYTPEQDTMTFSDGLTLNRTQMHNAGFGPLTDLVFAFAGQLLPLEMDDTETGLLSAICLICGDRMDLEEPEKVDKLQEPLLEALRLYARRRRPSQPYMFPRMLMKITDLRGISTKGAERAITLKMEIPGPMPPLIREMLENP
pIC50: −log10 of the molar value.
experimental-endpoint: pIC50

{"molecule": "CC(/C=C/[C@@H]1C[C@@H]1c1ccc2c(c1)C(C)(C)CCC2(C)C)=C\\C(=O)O (racemic)", "target-or-test-system": "RARγ (Homo sapiens)", "pIC50": 5.12}
{"molecule": "CCCOc1cc2c(cc1\\C(C)=C/C=C/C(C)=C/C(=O)O)C(C)(C)CCC2(C)C", "target-or-test-system": "RARγ (Homo sapiens)", "pIC50": 5.55}
{"molecule": "CCCCOc1c(\\C(C)=C/C=C/C(C)=C/C(=O)O)cc(C(C)(C)C)cc1C(C)(C)C", "target-or-test-system": "RARγ (Homo sapiens)", "pIC50": 5.57}
{"molecule": "CC(/C=C/c1sccc1-c1ccc2c(c1)C(C)(C)CCC2(C)C)=C\\C(=O)O", "target-or-test-system": "RARγ (Homo sapiens)", "pIC50": 5.44}

A = CC1=C(/C=C/c2sccc2/C=C/C(C)=C/C(=O)O)C(C)(C)CCC1
B = CCC1(CC)CCC(C)(C)c2cc(\C(C)=C/C=C/C(C)=C/C(=O)O)ccc21
Task: // task: argmin of pIC50 over [ A , B ] Refer to your chosen entry by its label in the reply.
Result: A
(A: 5.28, B: 7.48)

----------
# target-or-test-system: RXRγ (Homo sapiens, UniProt P48443)
# Sequence (P48443 1-463): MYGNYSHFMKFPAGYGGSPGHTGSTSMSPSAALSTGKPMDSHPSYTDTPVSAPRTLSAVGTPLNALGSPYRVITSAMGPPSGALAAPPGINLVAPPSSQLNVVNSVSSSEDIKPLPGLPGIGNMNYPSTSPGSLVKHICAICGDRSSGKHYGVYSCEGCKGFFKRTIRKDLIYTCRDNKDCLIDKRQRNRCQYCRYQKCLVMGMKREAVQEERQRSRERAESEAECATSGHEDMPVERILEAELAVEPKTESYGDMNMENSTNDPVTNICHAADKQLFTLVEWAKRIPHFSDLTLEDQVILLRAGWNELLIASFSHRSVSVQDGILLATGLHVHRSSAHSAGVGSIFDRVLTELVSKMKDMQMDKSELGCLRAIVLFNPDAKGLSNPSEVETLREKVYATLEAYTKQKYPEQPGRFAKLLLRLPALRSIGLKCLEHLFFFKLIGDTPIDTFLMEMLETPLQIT
pIC50: −log10 of the molar value.
experimental-endpoint: pIC50

{"smiles-string": "CC1=C(C#CC2=C(/C=C/C(C)=C/C(=O)O)CCCCC2)C(C)(C)CCC1", "meas-value": 7.19}

I = CCCOc1cc2c(cc1\C(C)=C/C=C/C(C)=C/C(=O)O)C(C)(C)CCC2(C)C
II = CCC1(CC)CCC(C)(C)c2cc(\C(C)=C/C=C/C(C)=C/C(=O)O)ccc21
III = CC(/C=C/C1=C(c2ccc3c(c2)C(C)(C)CCC3(C)C)CCCC1)=C\C(=O)O
Task: Arrange these compounds by their pIC50, starting with the largest number. Note for the reader: the ranking is given by listing the labels in the order requested.
Result: I, III, II

----------
# target-or-test-system: UniProt P48443
# Sequence (P48443 1-463): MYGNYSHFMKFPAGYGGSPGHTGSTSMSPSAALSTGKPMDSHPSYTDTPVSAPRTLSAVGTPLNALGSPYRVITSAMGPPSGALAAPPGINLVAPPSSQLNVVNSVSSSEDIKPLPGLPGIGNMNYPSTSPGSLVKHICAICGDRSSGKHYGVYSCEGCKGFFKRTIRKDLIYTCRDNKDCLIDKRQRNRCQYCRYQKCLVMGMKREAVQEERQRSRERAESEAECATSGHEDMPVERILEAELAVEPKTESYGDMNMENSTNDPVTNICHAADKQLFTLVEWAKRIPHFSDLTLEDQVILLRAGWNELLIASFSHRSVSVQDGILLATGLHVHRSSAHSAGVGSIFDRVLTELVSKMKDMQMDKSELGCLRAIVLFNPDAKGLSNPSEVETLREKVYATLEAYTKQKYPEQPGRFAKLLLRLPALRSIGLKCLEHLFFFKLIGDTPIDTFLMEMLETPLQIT
experimental-endpoint: IC50 (nM)

// worked examples, IC50 included
{"smiles-string": "CC(/C=C/c1sccc1-c1ccc2c(c1)C(C)(C)CCC2(C)C)=C\\C(=O)O", "IC50 / nM": 230}
{"smiles-string": "CC(/C=C/C1=C(c2ccc3c(c2)C(C)(C)CCC3(C)C)CCC1)=C\\C(=O)O", "IC50 / nM": 120}

A = CC(/C=C/c1ccccc1-c1ccc2c(c1)C(C)(C)CCC2(C)C)=C\C(=O)O
B = CC1=C(/C=C/C2=C(/C=C/C(C)=C/C(=O)O)CCC2)C(C)(C)CCC1
Task: Recorded IC50 values differ for A and B ; which one is higher? Refer to your chosen entry by its label in the reply.
Result: A
(A: 970 nM, B: 140 nM)

----------
# target-or-test-system: RXRγ (Homo sapiens)
# Sequence (P48443 1-463): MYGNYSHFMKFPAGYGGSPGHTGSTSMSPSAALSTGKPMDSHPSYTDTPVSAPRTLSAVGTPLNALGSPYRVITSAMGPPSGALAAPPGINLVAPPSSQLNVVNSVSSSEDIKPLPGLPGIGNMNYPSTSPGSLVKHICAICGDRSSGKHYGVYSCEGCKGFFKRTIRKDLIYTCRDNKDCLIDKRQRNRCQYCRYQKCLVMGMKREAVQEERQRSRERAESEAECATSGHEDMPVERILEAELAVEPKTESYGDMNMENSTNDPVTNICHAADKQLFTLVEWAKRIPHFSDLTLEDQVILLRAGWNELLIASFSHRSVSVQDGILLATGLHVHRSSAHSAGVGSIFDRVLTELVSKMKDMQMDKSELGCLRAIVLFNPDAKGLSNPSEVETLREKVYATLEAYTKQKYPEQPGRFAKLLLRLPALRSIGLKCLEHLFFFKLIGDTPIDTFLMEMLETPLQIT
# assay-overview: Retinoid activation assay, RXRγ (Schneider SL-3 cells, luciferase reporter)
# conditions-used: read-out: Activation EC50 RXR γ
experimental-endpoint: EC50 (nM)

{"compound": "CCc1cc2c(cc1\\C(C)=C/C=C/C(C)=C/C(=O)O)CCCC2C (racemic)", "target-or-test-system": "RXRγ (Homo sapiens)", "display-unit": "nM", "meas-value": 37}

I = CC(/C=C/[C@@H]1C[C@@H]1c1ccc2c(c1)C(C)(C)CCC2(C)C)=C\C(=O)O (stereo in doubt)
II = CC(/C=C/c1ccccc1-c1ccc2c(c1)C(C)(C)CCC2(C)C)=C\C(=O)O
Task: // task: argmin of EC50 over [ I , II ] Refer to your chosen entry by its label in the reply.
Result: I
